# target desc: VLA-4 (Homo sapiens, UniProt P05556+P13612)
# Sequence (P13612 34-1032): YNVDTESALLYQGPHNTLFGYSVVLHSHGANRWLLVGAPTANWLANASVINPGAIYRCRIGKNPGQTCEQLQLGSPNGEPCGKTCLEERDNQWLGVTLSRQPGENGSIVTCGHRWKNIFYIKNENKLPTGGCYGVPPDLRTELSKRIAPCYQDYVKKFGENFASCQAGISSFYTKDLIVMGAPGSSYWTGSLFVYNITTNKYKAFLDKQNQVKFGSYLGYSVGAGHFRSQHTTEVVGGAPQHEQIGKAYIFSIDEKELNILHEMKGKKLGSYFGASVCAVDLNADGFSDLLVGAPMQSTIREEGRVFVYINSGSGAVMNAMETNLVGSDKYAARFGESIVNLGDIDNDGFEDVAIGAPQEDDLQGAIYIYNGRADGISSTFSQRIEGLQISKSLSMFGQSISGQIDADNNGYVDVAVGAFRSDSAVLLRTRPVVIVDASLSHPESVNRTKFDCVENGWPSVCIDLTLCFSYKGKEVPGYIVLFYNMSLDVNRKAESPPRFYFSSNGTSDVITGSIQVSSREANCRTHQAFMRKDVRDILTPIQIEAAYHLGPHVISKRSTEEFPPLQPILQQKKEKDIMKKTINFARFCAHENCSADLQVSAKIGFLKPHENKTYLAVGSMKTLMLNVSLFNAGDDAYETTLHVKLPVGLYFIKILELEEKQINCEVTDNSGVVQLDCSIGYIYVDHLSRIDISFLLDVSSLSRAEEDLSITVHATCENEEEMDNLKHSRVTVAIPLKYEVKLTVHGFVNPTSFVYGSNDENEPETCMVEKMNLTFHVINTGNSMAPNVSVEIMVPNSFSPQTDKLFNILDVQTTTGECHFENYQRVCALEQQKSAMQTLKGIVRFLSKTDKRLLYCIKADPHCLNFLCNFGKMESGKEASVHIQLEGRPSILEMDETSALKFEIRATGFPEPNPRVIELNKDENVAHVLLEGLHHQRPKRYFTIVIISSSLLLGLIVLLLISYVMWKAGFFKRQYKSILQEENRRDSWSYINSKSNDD
# Sequence (P05556 21-798): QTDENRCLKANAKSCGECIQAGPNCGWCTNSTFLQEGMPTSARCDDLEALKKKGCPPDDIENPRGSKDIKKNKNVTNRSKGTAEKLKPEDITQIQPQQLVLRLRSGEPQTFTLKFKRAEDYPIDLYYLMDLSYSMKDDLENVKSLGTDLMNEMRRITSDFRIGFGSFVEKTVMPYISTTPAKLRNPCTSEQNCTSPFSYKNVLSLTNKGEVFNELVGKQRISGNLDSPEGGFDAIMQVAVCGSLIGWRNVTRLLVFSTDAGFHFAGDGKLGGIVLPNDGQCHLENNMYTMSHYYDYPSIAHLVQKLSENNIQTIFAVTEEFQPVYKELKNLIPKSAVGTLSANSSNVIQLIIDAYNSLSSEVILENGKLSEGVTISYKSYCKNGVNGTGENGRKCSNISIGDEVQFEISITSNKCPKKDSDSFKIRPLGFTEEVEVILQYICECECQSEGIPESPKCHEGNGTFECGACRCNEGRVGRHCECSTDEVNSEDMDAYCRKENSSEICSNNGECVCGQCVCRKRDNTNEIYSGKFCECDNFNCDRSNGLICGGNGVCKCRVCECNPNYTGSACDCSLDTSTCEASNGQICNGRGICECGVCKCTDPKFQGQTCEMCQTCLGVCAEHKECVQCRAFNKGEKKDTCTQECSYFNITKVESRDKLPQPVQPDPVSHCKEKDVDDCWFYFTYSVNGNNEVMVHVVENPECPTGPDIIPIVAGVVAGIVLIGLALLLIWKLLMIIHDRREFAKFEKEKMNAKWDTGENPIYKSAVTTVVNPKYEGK
# test details: cell-based
# Type: cell-based
# Parameters: host or cells: Jurkat (human T lymphoblastic line)
# run parameters: normalized IC50 relative to standard peptide of SEQ ID NO:3 (=1); about one-tenth or less of the standard is assigned zero
Square brackets hold non-standard residues; d marks the D form. Peptide text beside a SMILES is read from it. * marks the point of attachment. PhAc = O=C(Cc1ccccc1)*
experimental endpoint: RELATIVE POTENCY (relative peptide inhibition of VLA-4 binding CS-1)
Answer using only a numeral; do not append any unit.

Value of measured RELATIVE POTENCY (relative peptide inhibition of VLA-4 binding CS-1) for the entry CC(C)C[C@H](NC(=O)Cc1ccccc1)C(=O)N[C@@H](CC(=O)O)C(=O)N[C@@H](Cc1ccccc1)C(=O)N1CCC[C@@H]1C(N)=O [X L D F p phenylacetyl amide, N-phenylacetyl-Leu-Asp-Phe-D-Pro-NH2] (PhAc-LDF[dP]-NH2) : 313

* * *

# target desc: VLA-4 (Homo sapiens, UniProt P05556+P13612)
# test details: cell-based
# Assay type: cell-based
# Design: host or cells: Jurkat (human T lymphoblastic line)
# run parameters: normalized IC50 relative to standard peptide of SEQ ID NO:3 (=1); about one-tenth or less of the standard is assigned zero
Square brackets hold non-standard residues; d marks the D form. Peptide text beside a SMILES is read from it. * marks the point of attachment. Phe(4-NO2) = N[C@@H](Cc1ccc([N+](=O)[O-])cc1)C(=O)O; Morpholide = C1CN(*)CCO1; NHDecyl = CCCCCCCCCCN*; PhAc = O=C(Cc1ccccc1)*; NHNH2 = NN*
Each item that follows carries a reported RELATIVE POTENCY (relative peptide inhibition of VLA-4 binding CS-1).
Answer using only a numeral; do not append any unit.

Here's what some known entries look like.
compound	recorded result
CC(C)C[C@H](NC(=O)Cc1ccccc1)C(=O)N[C@@H](CC(=O)O)C(=O)NN(Cc1ccccc1)C(=O)C1CCCC1	1
CCCCCCCCCCNC(=O)[C@@H]1CCCN1C(=O)[C@H](Cc1ccccc1)NC(=O)[C@H](CC(=O)O)NC(=O)[C@H](CC(C)C)NC(=O)Cc1ccccc1 [X L D F P Z phenylacetyl decylamide] (PhAc-LDFP-NHDecyl)	2
CC(C)C[C@H](NC(=O)Cc1ccccc1)C(=O)N[C@@H](CC(=O)O)C(=O)NN [X L D Z phenylacetyl hydrazide] (PhAc-Leu-Asp-NHNH2)	1
CC(C)C[C@H](NC(=O)Cc1ccccc1)C(=O)N[C@@H](CC(=O)O)C(=O)NC1Cc2ccccc2N(CC(C)C)C1=O (some centres unmarked)	6
CC(C)C[C@H](NC(=O)Cc1ccccc1)C(=O)N[C@@H](CC(=O)O)C(=O)N[C@@H](Cc1ccccc1)C(=O)N1CCOCC1 [X L D F Z phenylacetyl morpholinamide] (PhAc-Leu-Asp-Phe-Morpholide)	844
CC(C)C[C@H](NC(=O)Cc1ccccc1)C(=O)N[C@@H](CC(=O)O)C(=O)N[C@@H](Cc1ccc([N+](=O)[O-])cc1)C(=O)N1CCC[C@@H]1C(N)=O (PhAc-LD[Phe(4-NO2)][dP]-NH2)	40
CC(C)C[C@H](NC(=O)Cc1ccccc1)C(=O)N[C@@H](CC(=O)O)C(=O)N[C@@H](Cc1ccccc1)C(N)=O [X L D F phenylacetyl amide] (PhAc-Leu-Asp-Phe-NH2)	1

Value of measured RELATIVE POTENCY (relative peptide inhibition of VLA-4 binding CS-1) for the entry "CCCCCCCCCC(=O)OC1CCN(C(=O)[C@H](Cc2ccccc2)NC(=O)[C@H](CC(=O)O)NC(=O)[C@H](CC(C)C)NC(=O)Cc2ccccc2)CC1" : 1
